Tested on: West Nile virus
assay.explanation: Inhibition of recombinant West Nile virus NS2B-NS3 protease at 16 umol/L using pERTKR-AMC as substrate preincubated for 30 mins followed by substrate addition by fluorescence assay
Calls of active or inactive are those of the source. No cut-off for these calls is given here.

>  <input.smiles>
O=C1C(=Cc2ccc(O)c(O)c2)C(=O)c2ccccc21

>  <study.system>
West Nile virus

>  <inhibition>
100%

$$$$
>  <input.smiles>
O=C1C(=Cc2ccccc2)C(=O)c2ccccc21

>  <study.system>
West Nile virus

>  <inhibition>
inactive

$$$$
>  <input.smiles>
COc1ccc(C=C2C(=O)c3ccccc3C2=O)cc1

>  <study.system>
West Nile virus

>  <inhibition>
inactive

$$$$
>  <input.smiles>
COc1cc(C=C2C(=O)c3ccccc3C2=O)cc(OC)c1OC

>  <study.system>
West Nile virus

>  <inhibition>
inactive

$$$$
